Reference source for all entries: ChEMBL document CHEMBL4665836

Test system: Pseudomonas aeruginosa
Test: Potentiation of aztreonam-induced antibacterial activity against carbapenem-resistant Pseudomonas aeruginosa 101885 clinical isolate assessed as aztreonam MIC at 8 uM by checkerboard assay (reference value: 16 ug/ml)
Assay type: functional
MEASUREMENT_LABEL: MIC (µg/mL)
The answer is to be given in µg/mL; state only the numeric part.

1) NC[C@H]1O[C@H](O[C@H]2[C@H](OCCCCCCCCN3CCCNCCNCCCNCC3)[C@@H](O)[C@H](N)C[C@@H]2N)[C@H](N)C[C@@H]1O.O=C(O)C(F)(F)F.O=C(O)C(F)(F)F.O=C(O)C(F)(F)F.O=C(O)C(F)(F)F.O=C(O)C(F)(F)F.O=C(O)C(F)(F)F.O=C(O)C(F)(F)F.O=C(O)C(F)(F)F 4
2) Cl.Cl.Cl.Cl.Cl.Cl.NC[C@H]1O[C@H](O[C@H]2[C@H](OCCCCCCCCCCCCN3CCN(c4cc5c(cc4F)c(=O)c(C(=O)O)cn5C4CC4)CC3)[C@@H](O[C@H]3O[C@H](CO)[C@@H](O)[C@H](N)[C@H]3O)[C@H](N)C[C@@H]2N)[C@H](N)C[C@@H]1O 1

# input molecule: `Cl.Cl.Cl.Cl.Cl.NC[C@H]1O[C@H](O[C@H]2[C@H](OCCCCCCCCCCCCN3CCN(c4cc5c(cc4F)c(=O)c(C(=O)O)cn5C4CC4)CC3)[C@@H](O)[C@H](N)C[C@@H]2N)[C@H](N)C[C@@H]1O` ; wanted: its MIC 4
